Please respond with reported IC50 for every item in the list.
- Target Desc: JAK2/JAK2 homdimeric complex (Homo sapiens (Human), UniProt O60674)
- Sequence (O60674 whole entry): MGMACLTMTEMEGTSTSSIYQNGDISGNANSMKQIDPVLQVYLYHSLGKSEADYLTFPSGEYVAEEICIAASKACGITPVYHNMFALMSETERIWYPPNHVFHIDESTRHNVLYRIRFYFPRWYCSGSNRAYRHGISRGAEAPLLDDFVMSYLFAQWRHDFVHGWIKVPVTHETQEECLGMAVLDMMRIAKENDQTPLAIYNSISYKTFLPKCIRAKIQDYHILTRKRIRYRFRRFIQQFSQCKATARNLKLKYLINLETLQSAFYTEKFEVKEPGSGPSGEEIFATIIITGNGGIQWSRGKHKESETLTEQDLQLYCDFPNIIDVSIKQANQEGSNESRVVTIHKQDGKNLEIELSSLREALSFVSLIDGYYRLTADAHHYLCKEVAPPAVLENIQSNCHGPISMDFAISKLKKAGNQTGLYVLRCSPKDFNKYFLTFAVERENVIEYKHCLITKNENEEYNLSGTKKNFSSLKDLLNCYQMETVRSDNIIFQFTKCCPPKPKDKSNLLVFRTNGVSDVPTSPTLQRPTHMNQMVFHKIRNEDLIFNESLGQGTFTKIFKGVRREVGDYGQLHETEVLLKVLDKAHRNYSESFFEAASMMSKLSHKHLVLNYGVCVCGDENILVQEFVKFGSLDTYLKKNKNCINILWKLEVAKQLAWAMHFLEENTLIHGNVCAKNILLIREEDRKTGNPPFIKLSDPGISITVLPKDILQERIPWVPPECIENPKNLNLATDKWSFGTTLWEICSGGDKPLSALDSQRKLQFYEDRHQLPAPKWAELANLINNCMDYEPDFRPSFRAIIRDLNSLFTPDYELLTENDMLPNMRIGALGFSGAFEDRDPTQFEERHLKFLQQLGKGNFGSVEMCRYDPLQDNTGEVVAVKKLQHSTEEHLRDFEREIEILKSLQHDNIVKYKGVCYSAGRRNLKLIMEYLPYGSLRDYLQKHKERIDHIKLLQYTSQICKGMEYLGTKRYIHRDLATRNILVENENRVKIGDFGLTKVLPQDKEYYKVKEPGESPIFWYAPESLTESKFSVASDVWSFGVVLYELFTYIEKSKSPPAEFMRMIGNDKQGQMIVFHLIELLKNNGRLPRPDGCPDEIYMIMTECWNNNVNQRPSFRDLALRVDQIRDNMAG
- Sequence (P32927 17-897 partner): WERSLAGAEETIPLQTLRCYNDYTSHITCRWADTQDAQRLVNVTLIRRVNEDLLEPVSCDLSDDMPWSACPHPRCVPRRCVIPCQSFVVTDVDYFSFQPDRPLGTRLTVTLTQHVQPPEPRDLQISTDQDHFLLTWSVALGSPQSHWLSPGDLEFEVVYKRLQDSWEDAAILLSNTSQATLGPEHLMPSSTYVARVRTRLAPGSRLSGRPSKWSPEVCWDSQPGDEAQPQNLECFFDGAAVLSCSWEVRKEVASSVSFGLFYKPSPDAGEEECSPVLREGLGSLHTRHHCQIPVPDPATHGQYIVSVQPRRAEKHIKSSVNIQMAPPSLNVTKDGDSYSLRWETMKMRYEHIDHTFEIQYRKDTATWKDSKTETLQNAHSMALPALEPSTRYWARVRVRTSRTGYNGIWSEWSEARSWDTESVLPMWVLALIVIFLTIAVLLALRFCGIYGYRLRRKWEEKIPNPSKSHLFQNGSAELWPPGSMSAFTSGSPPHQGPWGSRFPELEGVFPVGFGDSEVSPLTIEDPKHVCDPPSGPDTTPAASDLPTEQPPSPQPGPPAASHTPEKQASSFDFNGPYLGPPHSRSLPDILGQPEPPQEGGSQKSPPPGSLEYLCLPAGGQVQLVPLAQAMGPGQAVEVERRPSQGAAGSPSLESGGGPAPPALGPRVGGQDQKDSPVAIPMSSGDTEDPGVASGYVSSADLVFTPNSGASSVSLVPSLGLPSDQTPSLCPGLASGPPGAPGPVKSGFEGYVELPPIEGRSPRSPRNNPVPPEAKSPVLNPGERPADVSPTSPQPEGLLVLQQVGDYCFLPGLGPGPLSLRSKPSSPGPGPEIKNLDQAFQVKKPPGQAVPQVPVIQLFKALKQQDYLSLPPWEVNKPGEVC
- Assay Protocol: GM-CSF Induced pSTAT5 in Human PBMC
- Conditions: GM-CSF 5 ng/mL for 20 minutes, pSTAT5 by MSD, read-out: PBMC_GMCSF_pSTAT5 IC50

Which value of IC50 has been reported for "CNc1cc(Nc2cccnc2OC2CC2)nc2c(C(=O)NC3CC3)cnn12" in the records?
> 50 µM

Which value of IC50 has been reported for CNc1cc(Nc2cccn(C3CCCCC3)c2=O)nc2c(C(=O)N[C@@H]3CC[C@H]3O)cnn12 [I-1002] in the records?
> 50 µM

Which value of IC50 has been reported for "CNc1cc(Nc2cc(Cl)cn(-c3cnn(C)c3)c2=O)nc2c(C(=O)NC3CC3)cnn12" in the records?
> 12.5 µM

Which value of IC50 has been reported for "CNc1cc(Nc2cc(F)cc(F)c2F)nc2c(C(=O)NC3CC3)cnn12" in the records?
> 50 µM

Which value of IC50 has been reported for "CNc1cc(Nc2cc(F)cn(-c3ccccn3)c2=O)nc2c(C(=O)NC3CCC3)cnn12" in the records?
> 12.5 µM

Which value of IC50 has been reported for "[2H]C([2H])([2H])Oc1ncccc1Nc1cc(NC)n2ncc(C(=O)N[C@H]3C[C@H]3F)c2n1" in the records?
> 12.5 µM

Which value of IC50 has been reported for "CCONC(=O)c1cnn2c(NC)cc(Nc3cccn(-c4ncccc4F)c3=O)nc12" in the records?
> 50 µM

Which value of IC50 has been reported for "CNc1cc(Nc2cccn(-c3nc(C)co3)c2=O)nc2c(C(=O)N[C@@H]3CC[C@@H]3O)cnn12" in the records?
> 50 µM

====

- Target Desc: human TYK2 (JH2domain-pseudokinase) (Homo sapiens (Human))
- Assay Protocol: TYK2 JH2 Domain Binding Assay (KINOMEscan)
pKd: −log10 of the molar value.
Parameter Measured: pKd

Which value of pKd has been reported for "CNc1cc(Nc2cccn(C3CC(F)(F)C3)c2=O)nc2c(C(=O)N[C@@H]3CC[C@@H](O)C3)cnn12" in the records?
> 9.70

Which value of pKd has been reported for CNc1cc(-c2cn([C@@H]3CCCOC3)c3ncccc23)nc2c(C(=O)NC3CCC3O)cnn12 (mixture of isomers) in the records?
> 9.70

Which value of pKd has been reported for CNc1cc(Nc2cccn([C@H]3CC[C@](C)(OC)CC3)c2=O)nc2c(C(=O)N[C@@H]3CC[C@@H]3O)cnn12 [I-722] in the records?
> 9.70

Which value of pKd has been reported for CNc1cc(Nc2cccc(C3CCCCO3)n2)nc2c(C(=O)NC3CC3)cnn12 (stereo not shown) [I-432] in the records?
> 9.70

====

- Target Desc: human TYK2 (JH2domain-pseudokinase) (Homo sapiens (Human), UniProt P29597)
- Sequence (P29597 556-888): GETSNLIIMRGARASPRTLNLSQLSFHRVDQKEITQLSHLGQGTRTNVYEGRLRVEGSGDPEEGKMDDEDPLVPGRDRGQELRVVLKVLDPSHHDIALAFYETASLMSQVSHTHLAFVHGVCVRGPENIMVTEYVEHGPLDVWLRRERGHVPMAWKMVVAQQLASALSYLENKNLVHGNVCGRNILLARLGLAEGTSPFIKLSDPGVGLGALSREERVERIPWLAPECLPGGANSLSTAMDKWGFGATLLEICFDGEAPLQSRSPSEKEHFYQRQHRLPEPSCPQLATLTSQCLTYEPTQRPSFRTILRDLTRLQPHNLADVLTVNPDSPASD
- Assay Protocol: TYK2 JH2 Domain Binding Assay (KINOMEscan)
pKd: −log10 of the molar value.
Parameter Measured: pKd

Find pKd (human TYK2 (JH2domain-pseudokinase) (Homo sapiens (Human), UniProt P29597)) for the entry CNc1cc(Nc2cccn([C@H]3CCC[C@H](O)C3)c2=O)nc2c(C(=O)N[C@@H]3C[C@@H]3F)cnn12 [I-1030]
> 9.70

Find pKd (human TYK2 (JH2domain-pseudokinase) (Homo sapiens (Human), UniProt P29597)) for the entry CNc1cc(Nc2cccnc2OC)nc2c(C(=O)N[C@H]3[C@@H]4COC[C@@H]43)cnn12 [I-445]
9.00 to 9.70

Find pKd (human TYK2 (JH2domain-pseudokinase) (Homo sapiens (Human), UniProt P29597)) for the entry CNc1cc(-c2cn(C(C)C)c3ncccc23)nc2c(C(=O)N[C@@H]3COC[C@@H]3O)cnn12 [I-842]
> 9.70

Find pKd (human TYK2 (JH2domain-pseudokinase) (Homo sapiens (Human), UniProt P29597)) for the entry Cc1c(Nc2cccnc2OC(C)C)nc2c(C(=O)NC3CC3)cnn2c1N [I-207]
8.00 to 9.00

Find pKd (human TYK2 (JH2domain-pseudokinase) (Homo sapiens (Human), UniProt P29597)) for the entry CNc1cc(Nc2cc(C)nc(N3CC[C@@H](O)C3)c2)nc2c(C(N)=O)cnn12 [I-60]
8.00 to 9.00

Find pKd (human TYK2 (JH2domain-pseudokinase) (Homo sapiens (Human), UniProt P29597)) for the entry CNc1cc(Nc2cccn([C@H]3C[C@@H]3F)c2=O)nc2c(C(=O)N[C@@H]3CC[C@H](O)C3)cnn12 [I-1202]
8.00 to 9.00

Find pKd (human TYK2 (JH2domain-pseudokinase) (Homo sapiens (Human), UniProt P29597)) for the entry CNc1cc(Nc2cccc([C@@H]3CCCOC3)n2)nc2c(C(=O)NCC(C)(C)CO)cnn12 [I-580]
> 9.70

Find pKd (human TYK2 (JH2domain-pseudokinase) (Homo sapiens (Human), UniProt P29597)) for the entry CNc1cc(Nc2cccn([C@@H]3CCC[C@H](OC)C3)c2=O)nc2c(C(=O)N[C@@H]3CC[C@H]3OC)cnn12 [I-1082]
> 9.70
